- SUBJECT_OF_TEST: PI3Kβ (Homo sapiens, UniProt P42338)
- Sequence (P42338 whole entry): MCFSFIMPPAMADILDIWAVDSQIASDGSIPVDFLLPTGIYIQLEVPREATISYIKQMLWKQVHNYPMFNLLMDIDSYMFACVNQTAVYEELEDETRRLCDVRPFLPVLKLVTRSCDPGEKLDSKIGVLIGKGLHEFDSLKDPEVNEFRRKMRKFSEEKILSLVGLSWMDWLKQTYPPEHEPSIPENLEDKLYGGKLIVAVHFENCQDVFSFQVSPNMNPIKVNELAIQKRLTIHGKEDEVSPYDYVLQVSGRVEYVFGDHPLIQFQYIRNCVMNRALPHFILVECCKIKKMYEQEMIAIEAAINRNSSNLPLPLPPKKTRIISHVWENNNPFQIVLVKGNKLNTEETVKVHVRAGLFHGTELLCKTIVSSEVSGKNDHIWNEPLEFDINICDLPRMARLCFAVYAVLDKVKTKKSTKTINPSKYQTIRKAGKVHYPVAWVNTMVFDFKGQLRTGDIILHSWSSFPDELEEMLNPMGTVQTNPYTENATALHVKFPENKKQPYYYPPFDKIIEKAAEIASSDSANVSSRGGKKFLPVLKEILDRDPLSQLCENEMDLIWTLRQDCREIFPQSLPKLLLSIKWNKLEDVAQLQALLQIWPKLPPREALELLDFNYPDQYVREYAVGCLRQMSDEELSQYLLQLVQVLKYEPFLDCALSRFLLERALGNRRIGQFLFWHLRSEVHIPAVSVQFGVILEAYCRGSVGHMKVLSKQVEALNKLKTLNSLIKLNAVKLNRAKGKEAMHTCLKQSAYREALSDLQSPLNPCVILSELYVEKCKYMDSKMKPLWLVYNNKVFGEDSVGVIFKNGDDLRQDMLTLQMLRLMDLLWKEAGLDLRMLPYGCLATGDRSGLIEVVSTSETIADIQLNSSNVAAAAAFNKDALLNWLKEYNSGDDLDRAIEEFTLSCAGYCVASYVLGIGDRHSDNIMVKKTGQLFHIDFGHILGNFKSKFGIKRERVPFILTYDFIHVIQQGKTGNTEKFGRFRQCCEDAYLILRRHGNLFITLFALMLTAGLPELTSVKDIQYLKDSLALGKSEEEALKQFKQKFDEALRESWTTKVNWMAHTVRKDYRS
- Sequence (P27986 whole entry partner): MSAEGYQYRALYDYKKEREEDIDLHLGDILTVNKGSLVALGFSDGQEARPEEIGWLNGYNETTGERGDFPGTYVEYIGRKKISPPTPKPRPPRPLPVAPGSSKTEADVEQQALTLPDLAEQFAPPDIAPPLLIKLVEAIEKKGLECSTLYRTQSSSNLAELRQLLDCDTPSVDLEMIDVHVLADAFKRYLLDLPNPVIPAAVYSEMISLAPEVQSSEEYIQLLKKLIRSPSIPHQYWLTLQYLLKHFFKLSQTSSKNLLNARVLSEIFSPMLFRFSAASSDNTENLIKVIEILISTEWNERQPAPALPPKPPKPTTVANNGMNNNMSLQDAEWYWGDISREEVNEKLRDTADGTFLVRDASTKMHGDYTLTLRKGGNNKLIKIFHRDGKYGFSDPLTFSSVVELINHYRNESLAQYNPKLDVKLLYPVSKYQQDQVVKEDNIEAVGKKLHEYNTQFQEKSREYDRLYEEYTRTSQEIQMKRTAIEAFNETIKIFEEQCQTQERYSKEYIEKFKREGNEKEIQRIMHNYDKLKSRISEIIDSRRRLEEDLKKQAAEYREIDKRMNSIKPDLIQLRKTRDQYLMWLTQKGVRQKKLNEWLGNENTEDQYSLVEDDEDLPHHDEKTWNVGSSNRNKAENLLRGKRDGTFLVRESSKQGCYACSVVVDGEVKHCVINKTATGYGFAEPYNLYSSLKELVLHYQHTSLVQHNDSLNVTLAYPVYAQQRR
- DETAILS: HUVEC, S1P stimulus, phosphorylated AKT

{"columns": ["COMPOUND", "SUBJECT_OF_TEST", "IC50 / nM"],
 "data": [
  ["C[C@H](Nc1ncnc(N)c1C#N)c1nn2ccc(C#N)c2c(=O)n1-c1ccccc1", "PI3Kβ (Homo sapiens, UniProt P42338)", 295]
]}

----------
- SUBJECT_OF_TEST: PI3Kδ (Homo sapiens)
- Sequence (O00329 whole entry): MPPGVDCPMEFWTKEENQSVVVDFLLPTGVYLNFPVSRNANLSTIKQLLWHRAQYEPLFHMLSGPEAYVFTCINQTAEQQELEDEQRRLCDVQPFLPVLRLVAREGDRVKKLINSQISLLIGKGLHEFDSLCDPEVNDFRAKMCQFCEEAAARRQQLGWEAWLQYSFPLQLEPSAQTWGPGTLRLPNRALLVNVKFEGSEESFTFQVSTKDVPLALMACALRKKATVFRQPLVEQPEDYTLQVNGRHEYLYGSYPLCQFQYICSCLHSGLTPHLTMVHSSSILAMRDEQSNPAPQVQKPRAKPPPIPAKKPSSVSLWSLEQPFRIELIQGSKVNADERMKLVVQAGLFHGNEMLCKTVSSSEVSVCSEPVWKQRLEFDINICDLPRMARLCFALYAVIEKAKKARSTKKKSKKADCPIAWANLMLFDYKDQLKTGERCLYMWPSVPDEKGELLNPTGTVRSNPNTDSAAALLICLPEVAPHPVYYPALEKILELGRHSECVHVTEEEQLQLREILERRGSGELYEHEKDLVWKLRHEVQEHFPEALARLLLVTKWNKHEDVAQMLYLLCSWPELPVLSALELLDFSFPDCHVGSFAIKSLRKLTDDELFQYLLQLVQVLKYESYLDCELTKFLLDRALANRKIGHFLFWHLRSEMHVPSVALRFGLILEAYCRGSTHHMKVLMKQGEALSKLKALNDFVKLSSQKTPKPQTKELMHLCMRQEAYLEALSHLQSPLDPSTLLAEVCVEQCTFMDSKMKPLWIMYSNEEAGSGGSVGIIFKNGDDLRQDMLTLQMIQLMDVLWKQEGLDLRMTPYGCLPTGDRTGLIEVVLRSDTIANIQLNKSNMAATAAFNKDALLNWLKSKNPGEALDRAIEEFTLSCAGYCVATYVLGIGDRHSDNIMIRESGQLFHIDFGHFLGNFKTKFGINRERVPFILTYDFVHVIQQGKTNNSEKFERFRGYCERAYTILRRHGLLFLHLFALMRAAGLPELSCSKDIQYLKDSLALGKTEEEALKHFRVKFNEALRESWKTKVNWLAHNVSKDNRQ
- Sequence (P27986 whole entry partner): as the sequence (P27986 whole entry partner) above
- ASSAY_OVERVIEW: BCR crosslinking-induced B cell CD69 expression, human whole blood
- Format: cell-based
- DETAILS: CD19+ cells (human whole blood), Anti-IgM, B cell CD69 surface expression

{"columns": ["COMPOUND", "SUBJECT_OF_TEST", "IC50"],
 "data": [
  ["C[C@H](Nc1ncnc(N)c1C#N)c1nn2ccc(C#N)c2c(=O)n1-c1ccccc1", "PI3Kδ (Homo sapiens)", "34 nM"]
]}

Values were extracted from patent US20170151264A1.
